- System: influenza A/WSN
- assay explanation: Plaque reduction in MDCK cells, influenza A/WSN
- measurement parameters: 48 h, read-out: IC50, […], A/WSN
assay metric: pIC50
Please report pIC50 as the negative decimal logarithm of the molar concentration, giving only the number.

*Q* I would be grateful if you could share the reported pIC50 for CC(=O)C1=NN(c2ccc(C(=O)O)cc2C)C(=O)C1=C1C(=O)N(c2ccc(C(=O)O)cc2C)N=C1C(C)=O .
*A* 4.30

*Q* Next record, please: CC(=O)C1=NN(c2ccc(C(=O)O)cc2)C(=O)C1=C1C(=O)N(c2ccc(C(=O)O)cc2)N=C1C(C)=O
*A* 4.30

Where do these numbers come from? They come from patent US5684024A.
